# Tested on: IGROV1 ovarian
# experimental-protocol: NCI tumour cell line growth inhibition, 48 h
Below, each of the molecules is paired with its reported TGI value.

molecule	experimental-result
C#CCn1c(=O)c(C)cn(/C(=C\C(=O)OCC)C(=O)OCC)c1=O	15.3 µM
O=C1OC[C@H]2[C@@H]1[C@H]1O[C@@H]2C2=C(CCC2)C1=O	> 100 µM
COc1cc2c(cc1OCCCCCCN1CCN(CC(=O)Nc3ccc(Cl)cc3C(=O)c3ccccc3Cl)CC1)N=CC1CCCN1C2=O (configuration not stated)	0.388 µM

// query Reported TGI for N/N=C1\C(=O)N(c2ccc(Cl)cc2Cl)C(=O)C(=O)C1c1nc2ccccc2o1 (configuration not stated) : what is it?
// result > 100 µM

// query Reported TGI for O=C(c1cccs1)N1CCN(C(=O)c2cccs2)C1=S : what is it?
// result 19.6 µM

// query Reported TGI for COc1cnc2c(c1)C(=O)c1c-2n(CCCNCCO)c(=O)c2ccncc12 : what is it?
// result > 100 µM

// query Reported TGI for O=C(Nn1c(-c2ccccc2)nc2ccccc2c1=O)c1ccccc1O : what is it?
// result > 100 µM

// query Reported TGI for CN(C)/N=N/c1nc2c(c(=O)n(C)c(=O)n2C)n1CC(O)CO (configuration not stated) : what is it?
// result > 100 µM

// query Reported TGI for CC(=O)Nc1ccc(OC/C(N)=N/NC(=O)c2ccncc2)cc1 : what is it?
// result > 100 µM

// query Reported TGI for COc1ccc(C(=O)CC(c2ccccc2)[C@H]2C(c3ccc(OC)cc3)=Nc3c(nc(SC)n(C)c3=O)NC2c2ccccc2)cc1 (some centres not stated) : what is it?
// result > 100 µM

// query Reported TGI for Cc1cccc(C)c1NC(=O)CCc1nc(=S)[nH][nH]1 : what is it?
// result > 100 µM

// query Reported TGI for COc1ccc(/C(Cl)=C/c2cc(OC)ccc2OC)cc1 : what is it?
// result > 100 µM

* * *

# System: RXF 393 renal
# experimental-protocol: NCI tumour cell line growth inhibition, 48 h
quantity-kind: TGI (µM)
// note: answer is a bare numeric in µM

Sample records with TGI:
molecule	TGI [µM]
CC(C)Cc1ccc(C(C)CC2=CCC(CN(C)C)C2=O)cc1 (stereo unspecified)	14.3
O=C1C=CC(=O)c2c(O)c(NCCOCCO)c(Cl)c(O)c21	27.1
CSCCCNC(=O)c1ccc2c(c1)/C(=C/c1[nH]c(C)cc1C)C(=O)N2	37.1
CCN=C1C=CC(=C(c2ccc(N(CC)CC)cc2)c2ccc(N(CC)CC)cc2)c2ccccc21	0.384
C=C1CCC2(C#N)[C@H]3[C@H](CC[C@@H]2C)[C@@H](C)C[C@@H](CC(C)(C)NC(=O)CN2CCC2=O)[C@H]13 (stereo partly specified)	28
Cc1nn(-c2ccccc2)c(C)c1/C=N/N=C1\S/C(=C\c2ccc(Cl)cc2)C(=O)N1c1ccccc1	84.3
Cc1c(-c2ccnc(N)n2)c2c(n1Cc1ccccc1)C(=O)c1ccccc1C2=O	38.2
C=C1C(=O)OC2CC(C)C3CC(O)OC(OCC)C3(C)CC12 (stereo unspecified)	28.3

// query Reported TGI for Cc1ccc(S(=O)(=O)c2nc(-c3ccccc3)oc2S(C)=O)cc1 (stereo unspecified) : what is it?
// result 2.87

// query Reported TGI for COc1ccc(OC)c(SC(CC(=O)c2ccccc2)c2ccccc2)c1 (stereo unspecified) : what is it?
// result 31.1

// query Reported TGI for COc1ccc(-c2nc(-c3nc4ccc(F)cc4[nH]3)c3ccccn23)cc1 : what is it?
// result 45.3

* * *

# Tested on: SK-MEL-2 melanoma
# experimental-protocol: NCI tumour cell line growth inhibition, 48 h
quantity-kind: TGI

Sample records with TGI:
molecule	quantity-kind	experimental-result
Cc1ccc(S(=O)(=O)Nn2c(O)c(C#N)c(-c3ccc(Cl)cc3)c(C#N)c2=O)cc1	TGI	> 100 µM
Cc1ccc(S(=O)(=O)c2ccccc2[N+](=O)[O-])cc1	TGI	> 100 µM
COc1cc(C2c3cc4c(cc3C3OC[C@@H]2C3CO)OCO4)cc(OC)c1OC (some centres not stated)	TGI	> 100 µM
CCOP(=O)(O)CN1CCNCCN(CP(=O)(O)OCC)CCNCC1	TGI	> 100 µM
C=CCO/N=C(\OC(=O)c1ccc([N+](=O)[O-])cc1)c1ccccc1	TGI	> 100 µM
Cc1nn2c(/C=C3/C(=O)Nc4cc(Cl)ccc43)c(-c3ccccc3)nc2s1	TGI	46.7 µM
Cc1ccccc1-c1nc2c(C(=O)NCCN(C)C)cccc2[nH]1	TGI	> 100 µM
c1ccc2c(-c3nc(-c4c[nH]c5ccncc45)cs3)c[nH]c2c1	TGI	3.95 µM
O=c1oc(C(C(F)(F)F)C(F)(F)F)nc2ccccc12	TGI	> 100 µM
CCCCCCCCCCCCCCCCCCNc1nc(=O)n(C2CC(O)C(COP(=O)(O)O)O2)cc1F (configuration not stated)	TGI	> 100 µM

Turning now to a further molecule:
// query Reported TGI for C=C(C)CC1(O[Si](C)(C)C)C(=O)C(OCC)=C1OCC (configuration not stated) : what is it?
// result > 100 µM

* * *

# System: HS 578T breast
# experimental-protocol: NCI tumour cell line growth inhibition, 48 h
Below, each of the molecules is paired with its reported log10 of TGI value.
Hi team, quick reminder: these entries are log10 of TGI (µM).

molecule	log10 of TGI
CCOc1c(N=Nc2ccccc2Cl)c(-c2ccccc2)nn1C(=S)S	1.88
Cc1nnc2n1N=C(c1ccc(Cl)cc1Cl)/C(=C/c1ccc(-c3ccc([N+](=O)[O-])cc3Cl)o1)S2	1.71
CN(C)CCCNc1ccc2nnn3c4ccc(O)cc4c(=O)c1c23	1.12
NCCOCCOCCNc1nc(-c2ccc(Cl)cc2)nc(N2CCN(c3ccccn3)CC2)n1	0.66

// query Reported log10 of TGI for C=C1C(=O)OC2CC(C)C3CC(O)OC(OCC)C3(C)CC12 (stereo not given) : what is it?
// result 1.86

* * *

# Test system: EKVX NSCLC
# experimental-protocol: NCI tumour cell line growth inhibition, 48 h
Below, each of the compounds is paired with its reported GI50 value.

// query Reported GI50 for c1ccc2c(-c3nc(-c4c[nH]c5ccncc45)cs3)c[nH]c2c1 : what is it?
// result 1.78 µM

// query Reported GI50 for N.N.N.N.N.O=[N+]([O-])[O-].[Co+3].[O-][Cl+3]([O-])([O-])[O-] : what is it?
// result > 100 µM

// query Reported GI50 for O=c1cc(N/N=C/c2ccc(F)cc2)c2cc(Cl)ccc2[nH]1 : what is it?
// result 16.8 µM

* * *

# System: RPMI-8226 leukemia
# experimental-protocol: NCI tumour cell line growth inhibition, 48 h; in the data active means GI50 below about 0.43 µM; inactive means the rest
Respond using exactly one of the listed classes: active, inactive

These recorded examples may help you get a feel for the data.
1. C1CC[N-]CC1.CC(=N\O)/C(C)=N/O.CC(=N\O)/C(C)=N/O.OC1[CH-]CCCC1.[Co+2] inactive
2. CCCCCC[C@H](C)Nc1nc2ccccc2c2occc12 inactive
3. O=C(Oc1ccc(CO[N+](=O)[O-])cc1)c1ccccc1 active

// query # outcome recorded in this test, key = Cn1cc(C2=C(c3cn(C)c4ccc(Cl)cc34)C(=O)NC2=O)c2ccccc21
// result inactive

// query # outcome recorded in this test, key = c1ccc(-c2nc(N3CCOCC3)c3c4c(sc3n2)CCCCCC4)nc1
// result inactive

// query # outcome recorded in this test, key = Cc1cc2c([nH]c3ccccc32)c(O)c1-c1c(C)cc2c([nH]c3ccccc32)c1O
// result inactive

* * *

# Tested on: SW-620 colon
# experimental-protocol: NCI tumour cell line growth inhibition, 48 h; in the data active means GI50 below about 0.43 µM; inactive means the rest
Respond using exactly one of the listed classes: active, inactive

compound	label-class
CC(C)=CCC(OC(=O)C=C(C)C)C1=CC(=O)c2c(O)ccc(O)c2C1=O (stereo not drawn)	active
CCCCCC[C@H](C)Nc1nc2ccccc2c2occc12	inactive

Now look at this one.
// query # outcome recorded in this test, key = O=C([O][Sn]([O]C(=O)c1ccccn1)([c]1ccccc1)[c]1ccccc1)c1ccccn1
// result inactive

* * *

# Test system: SK-MEL-5 melanoma
# experimental-protocol: NCI tumour cell line growth inhibition, 48 h
Below, each of the compounds is paired with its reported GI50 value.

Sample records with GI50:
compound	experimental-result
O=C([O][Sn]([O]C(=O)c1ccccn1)([c]1ccccc1)[c]1ccccc1)c1ccccn1	12100 nM
COc1cc2c(cc1OCCCCCCN1CCN(CC(=O)Nc3ccc(Cl)cc3C(=O)c3ccccc3Cl)CC1)N=CC1CCCN1C2=O (configuration not stated)	513 nM

// query Reported GI50 for c1ccc2c(-c3nc(-c4c[nH]c5ccncc45)cs3)c[nH]c2c1 : what is it?
// result 1600 nM

// query Reported GI50 for COc1cnc2c(c1)C(=O)c1c-2n(CCCNCCO)c(=O)c2ccncc12 : what is it?
// result 1430 nM

// query Reported GI50 for N.N.N.N.N.O=[N+]([O-])[O-].[Co+3].[O-][Cl+3]([O-])([O-])[O-] : what is it?
// result > 100000 nM
